# Target: Melanocortin receptor 5 (Mus musculus)
# Sequence (P41149 whole entry): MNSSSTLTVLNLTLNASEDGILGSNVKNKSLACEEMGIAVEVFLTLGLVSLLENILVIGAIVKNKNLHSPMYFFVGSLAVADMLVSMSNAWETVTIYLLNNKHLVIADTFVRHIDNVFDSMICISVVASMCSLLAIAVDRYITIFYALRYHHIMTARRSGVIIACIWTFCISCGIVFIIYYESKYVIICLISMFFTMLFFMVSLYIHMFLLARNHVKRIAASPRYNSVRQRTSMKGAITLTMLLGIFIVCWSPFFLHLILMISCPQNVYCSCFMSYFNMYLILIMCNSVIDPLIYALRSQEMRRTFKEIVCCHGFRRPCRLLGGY
# Assay remarks: Agonist activity at mouse melanocortin receptor 5 expressed in HEK293 cells assessed as stimulation of intracellular cAMP accumulation incubated for 24 hrs by beta-galactosidase reporter gene assay
Recorded metric: EC50 (nM)

Example molecules with recorded EC50:
# Molecule, Recorded metric, Unit name, Assay value
measured = [
    ("CCC[C@@H]1CN([C@H](Cc2ccccc2)CN2CCC[C@H]2CN2C(=N)NC[C@H]2CC(C)C)C(=N)N1CCCC(C)C", "EC50", "nM", 2180),
    ("CC(C)CCCN1C(=N)N([C@H](CC2CCCCC2)CN2CCC[C@H]2CN2C(=N)NC[C@H]2CC(C)C)C[C@H]1C(C)C", "EC50", "nM", 1850),
    ("CC(C)[C@@H]1CNC(=N)N1C[C@@H]1CCCN1C[C@@H](CC1CCCCC1)N1C[C@@H]([C@@H](C)O)N(CC23CC4CC(CC(C4)C2)C3)C1=N", "EC50", "nM", 600),
    ("CC(C)C[C@@H]1CNC(=N)N1C[C@@H]1CCCN1C[C@@H](CC1CCCCC1)N1C[C@@H]([C@@H](C)O)N(CC23CC4CC(CC(C4)C2)C3)C1=N", "EC50", "nM", 340),
]

[I] CC(C)CCCN1C(=N)N([C@H](Cc2ccccc2)CN2CCC[C@H]2CN2C(=N)NC[C@H]2CC(C)C)C[C@H]1C(C)C
[II] CCC[C@@H]1CN([C@H](Cc2ccccc2)CN2CCC[C@H]2CN2C(=N)NC[C@H]2CC(C)C)C(=N)N1CC1CCC(C(C)(C)C)CC1 (some centres not stated)
[III] CCC[C@@H]1CN([C@H](CC2CCCCC2)CN2CCC[C@H]2CN2C(=N)NC[C@H]2CC(C)C)C(=N)N1CCCC(C)C
Put the items in order so that reported EC50 rises from first to last. Provide your answer as the labels ordered per the instruction.
II, I, III
(II: 480 nM, I: 1260 nM, III: 1800 nM)
